Tested on: SMN2-linked luciferase-reporter gene construct
experiment-description: SMN Splice Reporter Assay (SMN2-linked luciferase reporter)
Type: cell-based
protocol-conditions: fold-increase of luciferase over baseline reading of transformed cells without any test compound
Some compounds, each annotated with its measured Fold Increase.
Quick one: just the number, no unit, thanks!

Problem: Would you mind telling me what Fold Increase value was observed for CCc1ccc2c(c1)C(=O)N(c1ccc3ccsc3c1)C2 [Example 122683] ?
Result: 1.582

Problem: Would you mind telling me what Fold Increase value was observed for Cn1ccc2ccc(N3Cc4c(Cl)cccc4C3=O)cc21 [Example 120788] ?
Result: 1.25

Problem: Would you mind telling me what Fold Increase value was observed for COc1ccc2c(c1)C(=O)N(c1ccc3ocnc3c1)C2 [Example 120957] ?
Result: 1.254

====

System: SMN2-linked luciferase-reporter gene construct
experiment-description: SMN Splice Reporter Assay (SMN2-linked luciferase reporter)
Type: cell-based
protocol-conditions: cervical carcinoma cell lines, SMN2 splice luciferase reporter
measurement-name: pEC50
By convention, pEC50 is the negative base-10 log of a molar concentration.

Example results:
INSERT INTO results (compound_smiles, measurement_name, numeric_result) VALUES
  ('COc1ccc2c(c1)C(=O)N(c1ccc3nccc(Cl)c3c1)C2', 'pEC50', 6.04),
  ('COc1ccc2c(c1)C(=O)N(c1ccc3c(c1)CCC3)C2', 'pEC50', 7.01),
  ('Cc1cc2cc(N3Cc4ccc(CC(C)C)cc4C3=O)ccc2n1C', 'pEC50', 6.44);

Problem: Would you mind telling me what pEC50 value was observed for Cn1ccc2cc(N3Cc4ccc(C(F)(F)F)cc4C3=O)ccc21 ?
Result: 6.06

Problem: Would you mind telling me what pEC50 value was observed for CCOc1ccc2c(c1)C(=O)N(c1ccc3ccn(C)c3c1)C2 ?
Result: 7.16

Problem: Would you mind telling me what pEC50 value was observed for O=C1c2cc(Br)ccc2CN1c1ccc2ncccc2c1 ?
Result: 6.65

====

Test system: SMN2-linked luciferase-reporter gene construct
experiment-description: SMN Splice Reporter Assay (SMN2-linked luciferase reporter)
Type: cell-based
protocol-conditions: cervical carcinoma cell lines, SMN2 splice luciferase reporter
measurement-name: log10(EC50) (log10 of the value in nM)
Could you please treat all values as log10 of EC50 in nM?

Example results:
INSERT INTO results (compound, test_system, measurement_name, numeric_result) VALUES
  ('COc1ccc2c(c1)C(=O)N(c1ccc3ccc(Cl)nc3c1)C2 [Example 123710]', 'SMN2-linked luciferase-reporter gene construct', 'log10(EC50)', 1.67),
  ('Cn1ccc2ccc(N3Cc4ccccc4C3=O)cc21 [Example 120435]', 'SMN2-linked luciferase-reporter gene construct', 'log10(EC50)', 2.81),
  ('Cn1ccc2ccc(N3Cc4cccc(N)c4C3=O)cc21 [Example 120429]', 'SMN2-linked luciferase-reporter gene construct', 'log10(EC50)', 2.18),
  ('O=C1c2ccccc2CN1c1ccc2c(c1)OCCO2 [Example 116069]', 'SMN2-linked luciferase-reporter gene construct', 'log10(EC50)', 1.98),
  ('COc1ccc2c(c1)C(=O)N(c1ccc3c(ccc[n+]3[O-])c1)C2 [Example 121786]', 'SMN2-linked luciferase-reporter gene construct', 'log10(EC50)', 2.27),
  ('COc1ccc2c(c1)C(=O)N(c1ccc3c(Cl)ccnc3c1)C2 [Example 123711]', 'SMN2-linked luciferase-reporter gene construct', 'log10(EC50)', 3.20),
  ('COc1ccc2c(c1)C(=O)N(c1ccc3c(c1)cc1n3CCC1)C2 [Example 124651]', 'SMN2-linked luciferase-reporter gene construct', 'log10(EC50)', 2.06),
  ('CCOc1ccc2c(c1)C(=O)N(c1ccc3c(c1)cc(C)n3C)C2 [Example 123328]', 'SMN2-linked luciferase-reporter gene construct', 'log10(EC50)', 2.65),
  ('COc1ccc2c(c1)C(=O)N(c1ccc3cccnc3c1)C2 [Example 122821]', 'SMN2-linked luciferase-reporter gene construct', 'log10(EC50)', 1.57),
  ('Cn1ccc2cc(N3Cc4ccc(OCC(F)(F)F)cc4C3=O)ccc21 [Example 122043]', 'SMN2-linked luciferase-reporter gene construct', 'log10(EC50)', 2.73);

Problem: Quick check: log10(EC50) on SMN2-linked luciferase-reporter gene construct, item Cn1ccc2ccc(N3Cc4ccc(OC(F)F)cc4C3=O)cc21 [Example 120591] ?
Result: 2.71
